tested_target: Acetylcholinesterase (Electrophorus electricus, UniProt O42275)
Sequence (O42275 whole entry): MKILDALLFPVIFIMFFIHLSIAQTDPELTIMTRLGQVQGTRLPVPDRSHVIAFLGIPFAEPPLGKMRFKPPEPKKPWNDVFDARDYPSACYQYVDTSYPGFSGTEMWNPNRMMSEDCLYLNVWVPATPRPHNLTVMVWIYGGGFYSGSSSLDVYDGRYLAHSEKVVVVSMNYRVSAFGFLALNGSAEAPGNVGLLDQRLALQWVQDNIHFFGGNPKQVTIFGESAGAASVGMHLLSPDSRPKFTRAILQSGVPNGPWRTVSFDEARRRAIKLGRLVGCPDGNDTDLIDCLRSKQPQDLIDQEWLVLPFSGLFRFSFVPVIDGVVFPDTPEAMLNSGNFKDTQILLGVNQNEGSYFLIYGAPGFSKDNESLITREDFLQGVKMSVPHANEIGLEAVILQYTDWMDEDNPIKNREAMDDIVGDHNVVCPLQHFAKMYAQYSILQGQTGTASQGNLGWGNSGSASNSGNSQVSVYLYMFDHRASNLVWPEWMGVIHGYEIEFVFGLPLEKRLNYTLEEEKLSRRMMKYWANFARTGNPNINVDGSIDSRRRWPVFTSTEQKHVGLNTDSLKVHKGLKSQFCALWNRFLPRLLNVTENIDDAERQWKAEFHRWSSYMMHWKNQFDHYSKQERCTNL
Recorded IC50 determines the label; the label ranges are bottom: < 300 nM; middle: ≥ 300 nM and < 1000 nM; top: ≥ 1000 nM

* Cc1cc(=O)oc2cc(O)ccc12 [HYMECROMONE] | top
* O=C(CN1CCN(CCOc2ccc3ccc(=O)oc3c2)CC1)Nc1c2c(nc3ccccc13)CCCC2 | bottom
* O=C(CN1CCN(CCCCCCOc2ccc3ccc(=O)oc3c2)CC1)Nc1c2c(nc3ccccc13)CCCC2 | middle
* O=C(CN1CCN(CCOc2ccc3c(-c4ccccc4)cc(=O)oc3c2)CC1)Nc1c2c(nc3ccccc13)CCCC2 | middle
* O=C(CN1CCN(CCCCCCOc2ccc3c(-c4ccccc4)cc(=O)oc3c2)CC1)Nc1c2c(nc3ccccc13)CCCC2 | top

INPUT: Classify this compound: COc1cc(=O)oc2cc(OCCN3CCN(CC(=O)Nc4c5c(nc6ccccc46)CCCC5)CC3)ccc12
OUTPUT: bottom

INPUT: // return the class label for COc1cc(=O)oc2cc(OCCCCCN3CCN(CC(=O)Nc4c5c(nc6ccccc46)CCCC5)CC3)ccc12
OUTPUT: middle

INPUT: Please let me know in which category the item O=C(CN1CCN(CCCCCOc2ccc3c(-c4ccccc4)cc(=O)oc3c2)CC1)Nc1c2c(nc3ccccc13)CCCC2 belongs.
OUTPUT: top

###

The compounds listed here are annotated with their inhibition.
tested_target: UniProtKB P05067
Sequence (P05067 whole entry): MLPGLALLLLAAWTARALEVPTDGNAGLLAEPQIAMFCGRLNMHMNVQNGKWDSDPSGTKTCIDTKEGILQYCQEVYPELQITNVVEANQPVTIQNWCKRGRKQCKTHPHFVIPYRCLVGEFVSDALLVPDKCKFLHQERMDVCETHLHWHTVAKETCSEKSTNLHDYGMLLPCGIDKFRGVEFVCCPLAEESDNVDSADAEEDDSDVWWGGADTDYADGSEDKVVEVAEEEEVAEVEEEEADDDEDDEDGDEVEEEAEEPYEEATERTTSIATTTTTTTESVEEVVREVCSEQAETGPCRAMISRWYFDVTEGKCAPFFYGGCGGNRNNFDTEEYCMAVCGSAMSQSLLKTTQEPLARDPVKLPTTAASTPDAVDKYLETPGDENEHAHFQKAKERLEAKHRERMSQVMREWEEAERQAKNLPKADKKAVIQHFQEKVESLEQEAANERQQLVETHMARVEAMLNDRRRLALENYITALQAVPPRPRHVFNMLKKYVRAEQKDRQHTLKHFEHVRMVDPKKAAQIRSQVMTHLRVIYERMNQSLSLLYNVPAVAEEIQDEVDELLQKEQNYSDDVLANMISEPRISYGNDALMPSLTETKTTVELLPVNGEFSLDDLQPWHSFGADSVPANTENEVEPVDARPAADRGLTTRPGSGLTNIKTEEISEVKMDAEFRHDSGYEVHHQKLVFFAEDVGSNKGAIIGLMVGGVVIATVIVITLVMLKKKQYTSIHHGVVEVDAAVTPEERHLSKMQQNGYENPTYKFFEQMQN
condition_description: at 20 µM

These recorded examples may help you get a feel for the data.
- O=c1ccc2ccc(O)cc2o1: 30.5%
- O=C(CN1CCN(CCCCCOc2ccc3c(-c4ccccc4)cc(=O)oc3c2)CC1)Nc1c2c(nc3ccccc13)CCCC2: 29.5%
- COc1cc(=O)oc2cc(OCCCCCCN3CCN(CC(=O)Nc4c5c(nc6ccccc46)CCCC5)CC3)ccc12: 31.9%

INPUT: Please give the measured inhibition for this compound: O=C(CN1CCN(CCOc2ccc3ccc(=O)oc3c2)CC1)Nc1c2c(nc3ccccc13)CCCC2
OUTPUT: 59%

INPUT: # inhibition lookup, item COc1cc(=O)oc2cc(OCCCCCN3CCN(CC(=O)Nc4c5c(nc6ccccc46)CCCC5)CC3)ccc12
OUTPUT: 30%

INPUT: Request the reported inhibition associated with O=C(CN1CCN(CCCOc2ccc3c(-c4ccccc4)cc(=O)oc3c2)CC1)Nc1c2c(nc3ccccc13)CCCC2
OUTPUT: 28.2%

###

tested_target: Acetylcholinesterase (Electrophorus electricus)
Quick rule for you: IC50 under 900 nM gets yes, anything else gets no.

Example results:
• COc1cc(=O)oc2cc(OCCCCCCN3CCN(CC(=O)Nc4c5c(nc6ccccc46)CCCC5)CC3)ccc12 = no
• O=c1cc(-c2ccccc2)c2ccc(O)cc2o1 = no

INPUT: Criterion: IC50 strictly below 900 nM. Is it met by Cc1cc(=O)oc2cc(OCCCN3CCN(CC(=O)Nc4c5c(nc6ccccc46)CCCC5)CC3)ccc12 ?
OUTPUT: yes

INPUT: Criterion: IC50 strictly below 900 nM. Is it met by Cc1cc(=O)oc2cc(OCCCCCN3CCN(CC(=O)Nc4c5c(nc6ccccc46)CCCC5)CC3)ccc12 ?
OUTPUT: yes

INPUT: Lab note: confirm whether the reported IC50 for this molecule is below 900 nM, equality not counting. molecule: O=C(CN1CCN(CCCCCOc2ccc3ccc(=O)oc3c2)CC1)Nc1c2c(nc3ccccc13)CCCC2
OUTPUT: yes

INPUT: Given COc1cc(=O)oc2cc(O)ccc12 , is recorded IC50 strictly lower than 900 nM?
OUTPUT: no

INPUT: Is IC50 strictly under 900 nM for the entry Cc1cc(=O)oc2cc(OCCCCN3CCN(CC(=O)Nc4c5c(nc6ccccc46)CCCC5)CC3)ccc12 ?
OUTPUT: yes

INPUT: Lab note: confirm whether the reported IC50 for this molecule is below 900 nM, equality not counting. molecule: COc1cc(=O)oc2cc(OCCCCN3CCN(CC(=O)Nc4c5c(nc6ccccc46)CCCC5)CC3)ccc12
OUTPUT: yes

INPUT: Confirm or reject: IC50 of O=C(CN1CCN(CCCCOc2ccc3c(-c4ccccc4)cc(=O)oc3c2)CC1)Nc1c2c(nc3ccccc13)CCCC2 lies strictly below 900 nM
OUTPUT: no
